EXPERIMENTAL PROTOCOL: NCI Yeast Anticancer Drug Screen. Data for the mlh1 rad18 strain (AID 175)
CONDITION LABEL: S. cerevisiae mlh1 rad18 strain growth inhibition; at 50.0 µM; hits give high values
Compounds without any hit were thinned out: in the full panel of roughly 79,000, 15% have a hit.
PROPERTY NAME: growth inhibition (%)
Numeric only. Scale: %

Sample answers from the record:
{"MOLECULE": "O=C1CCCCCCCCCCC1Cc1cc(O)c(CC2CCCCCCCCCCC2=O)cc1O (configuration not stated)", "growth inhibition, %": -12.8}
{"MOLECULE": "Cc1cc(NC(=O)NC(=O)c2ccccc2N(C)C)ccc1Oc1ncc(Br)cn1", "growth inhibition, %": -4.45}
{"MOLECULE": "O=C(Nc1cc(Cl)c(Cl)cc1Cl)Nc1cc(Cl)ccc1Oc1ccc(Cl)cc1S(=O)(=O)O", "growth inhibition, %": 98.7}

Then there is this molecule:
Task: Tell me its growth inhibition given "CC(=O)Nc1ccc([N+](=O)[O-])cc1Cl" as the entry.
Output: 26.4

---

growth inhibition: recorded values
EXPERIMENTAL PROTOCOL: NCI Yeast Anticancer Drug Screen. Data for the cln2 rad14 strain (AID 165);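 note: 0% = growth equal to vehicle treated cultures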
CONDITION LABEL: S. cerevisiae cln2 rad14 strain, at 50.0 µM, hits give high values
About 79,000 compounds went through this panel and 15% of them were active in at least one assay; those are over-represented in the sample as a whole.
Write down the numeric answer in % and omit the unit.

Some compounds with recorded growth inhibition:
{"COMPOUND": "COc1cc(C(=O)CC(=O)Cc2ccc3ccccc3n2)cc(OC)c1OC", "growth inhibition / %": -15.7}
{"COMPOUND": "COc1ccc(/C=C/C(=O)C(C)(C)CN2CCCCC2)cc1", "growth inhibition / %": 37.8}
{"COMPOUND": "NC1=NC(c2ccccc2)N=C(Nc2ccccc2)N1 (stereo not drawn)", "growth inhibition / %": -15}
{"COMPOUND": "CCC(=O)OC1CCCCC1C1CCCCC1 (stereo not drawn)", "growth inhibition / %": -37.6}
{"COMPOUND": "S=c1[nH]ncn2nc3ccccc3c12", "growth inhibition / %": -45.5}

Lab note: next compound to report on.
Task: Quote growth inhibition reported for "N#CNc1nc(N)cc(=O)[nH]1" please.
Output: 3

---

The following molecules are listed with their measured growth inhibition values.
EXPERIMENTAL PROTOCOL: NCI Yeast Anticancer Drug Screen. Data for the mlh1 rad18 strain (AID 175)
CONDITION LABEL: S. cerevisiae mlh1 rad18 strain growth inhibition; at 50.0 µM; hits give high values
Compounds without any hit were thinned out: in the full panel of roughly 79,000, 15% have a hit.
The figure you give is taken to be in %; do not add the unit.

Illustrative cases are given below, each with its answer.
{"MOLECULE": "CC1(C)CC(=O)C(/C=N/C(N)=S)=C(O)C1", "growth inhibition / %": -31.6}
{"MOLECULE": "CCOC(=O)N(CCCl)C(=O)C(C)C", "growth inhibition / %": -11.1}
{"MOLECULE": "CCN(CC)CC(Oc1ccccc1)C(=O)c1ccccc1 (stereo unspecified)", "growth inhibition / %": -7.4}
{"MOLECULE": "CCCCCCCCCCCCCCCCC[CH2][Sn]([Cl])([CH2]CCCCCCCCCCCCCCCCC)[CH2]CCCCCCCCCCCCCCCCC", "growth inhibition / %": -13.7}
{"MOLECULE": "Cc1cccc2c1Oc1ccccc1C2NC(=O)OCCc1ccccc1 (stereo unspecified)", "growth inhibition / %": 1.25}
{"MOLECULE": "CCCCNC(=O)C(C)S(=O)(=O)c1ccc(C)cc1 (stereo unspecified)", "growth inhibition / %": 11.8}

Task: Given "CCOC(=O)c1ccc(N=c2sc3ccccc3nc2Nc2ccc(C(=O)OCC)cc2)cc1" , respond with its growth inhibition.
Output: 10.9

Task: Determine from records and report growth inhibition for "Cc1ccc2c(ccc3ccccc32)n1"
Output: 45.4

Task: Let me know recorded growth inhibition for "COc1ccc(N2C(=O)CCC2=O)cc1" , thanks.
Output: 4.9

---

Each entry below carries its recorded growth inhibition.
EXPERIMENTAL PROTOCOL: NCI Yeast Anticancer Drug Screen. Data for the sgs1 mgt1 strain (AID 161);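 note: 0% = growth of cultures given vehicle only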
CONDITION LABEL: S. cerevisiae sgs1 mgt1 strain, at 50.0 µM, hits give high values
Compounds without any hit were thinned out: in the full panel of roughly 79,000, 15% have a hit. Calls of active or inactive are those of the source. No stated cut-off is given here; in the data, active means growth inhibition above about 70%; inactive means the rest.

{"MOLECULE": "C/C(CC(=O)Nc1ccc(Cl)c(Cl)c1)=N/NC(=O)C[n+]1ccccc1", "growth inhibition": "7.45% (inactive)"}
{"MOLECULE": "OCCSc1ccc(Cl)cc1", "growth inhibition": "5.95% (inactive)"}
{"MOLECULE": "CS(=O)(=O)OCCCCCCCCCOS(C)(=O)=O", "growth inhibition": "-3.6% (inactive)"}
{"MOLECULE": "CCC(CC)C(=O)OCCc1ccccc1", "growth inhibition": "-2.35% (inactive)"}
{"MOLECULE": "C/C(NN(C)C)=C(\\C#N)C(=O)/C=C/c1cccs1", "growth inhibition": "38.5% (inactive)"}
{"MOLECULE": "Cc1ccc(S(=O)(=O)N2CN3CN(C2)CN(S(=O)(=O)c2ccc(C)cc2)C3)cc1", "growth inhibition": "-9.15% (inactive)"}

Task: Dear colleague, please send me the reported growth inhibition for "CCN(C)c1nc(N(C)CC)c2nc(N(C)CC)nc(N(C)CC)c2n1" when you can.
Output: 17.8% (inactive)

Task: Give the value of growth inhibition reported for the following: "COc1cc(C)cc2c(-c3c(OC(C)=O)cc(OC(C)=O)c4c3C[C@H](C)N(C(C)=O)[C@H]4C)cc(-c3cc(-c4c(OC(C)=O)cc(OC(C)=O)c5c4C[C@H](C)N(C(C)=O)[C@H]5C)c4cc(C)cc(OC)c4c3O)c(O)c12"
Output: 34.5% (inactive)

Task: Item "COc1ccc(N2C(=O)CCC2=O)cc1" : provide growth inhibition
Output: -7.7% (inactive)

Task: Look up and report measured growth inhibition for this entry: "Cc1cc2ccccc2c2cc3ccccc3cc12"
Output: 8.45% (inactive)

---

EXPERIMENTAL PROTOCOL: NCI Yeast Anticancer Drug Screen. Data for the rad50 strain (AID 155);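 note: 0% = growth of vehicle-only cultures of the same strain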
CONDITION LABEL: S. cerevisiae rad50 strain growth inhibition; at 50.0 µM; hits give high values
About 79,000 compounds went through this panel and 15% of them were active in at least one assay; those are over-represented in the sample as a whole.
PROPERTY NAME: growth inhibition (%)
# output: bare number, implied unit %

A selection of reference data follows.
{"COMPOUND": "CCOC(=O)/C(C)=C(/O)C(=O)OCC", "EXPERIMENTAL VALUE": -45.2}
{"COMPOUND": "C/C(=C1\\C(=O)Nc2ccccc21)c1cccnc1", "EXPERIMENTAL VALUE": -8.2}
{"COMPOUND": "COC(=O)c1nc(NN)[nH]c(=O)c1CCCCCc1c(C(=O)OC)[nH]c(NN)cc1=O", "EXPERIMENTAL VALUE": -35.4}
{"COMPOUND": "N=C1C(O)=CC(=O)C(O)=C1C(=O)O", "EXPERIMENTAL VALUE": -9.1}
{"COMPOUND": "CC(=O)c1cccc2cc(CC(=O)c3ccccc3)c(=O)oc12", "EXPERIMENTAL VALUE": 12.2}

Task: Write down growth inhibition measured for item "CCOC(=O)CCCCCCCCC(=O)Nc1ccc(-n2[nH]c(=O)cc2C)cc1"
Output: -2.6

Task: Provide only the value of recorded growth inhibition for "CC(=O)c1ccc(Cl)c(Cl)c1"
Output: -3.6

---

EXPERIMENTAL PROTOCOL: NCI Yeast Anticancer Drug Screen. Data for the bub3 strain (AID 167)
CONDITION LABEL: S. cerevisiae bub3 mutant strain, at 50.0 µM, hits give high values
About 79,000 compounds went through this panel and 15% of them were active in at least one assay; those are over-represented in the sample as a whole.
# growth inhibition per entry
// return numeric value only (unit: %, not printed)

{"MOLECULE": "CCOC(=O)CCC(NC(=O)N1CCN(c2c(C)nc(C)[nH]c2=O)CC1)C(=O)OCC (configuration not stated)", "UNIT ABBREV": "%", "EXPERIMENTAL VALUE": 12.7}

Task: Provide growth inhibition value for the following molecule: CCCC(=O)OCC1OC2OC(C)(C)OC2C2OC(C)(C)OC12 (configuration not stated)
Output: 15.8

Task: Input "COc1ccc(Cl)cc1NC(=O)c1ccccc1C(=O)O" , output reported growth inhibition.
Output: 12.4

---

Some compounds, each annotated with its measured growth inhibition.
EXPERIMENTAL PROTOCOL: NCI Yeast Anticancer Drug Screen. Data for the rad50 strain (AID 155);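 note: 0% = growth of vehicle-only cultures of the same strain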
CONDITION LABEL: S. cerevisiae rad50 strain growth inhibition; at 50.0 µM; hits give high values
This is part of a sample that, as a whole, favours compounds with a hit. Of some 79,000 tested, about 15% had one in any assay.
Entry rule: numbers only, all in %.

// known answers, use as guide
{"COMPOUND": "C1=C[CH]([Sn]([CH]2C=Cc3ccccc32)([CH]2C=Cc3ccccc32)[CH]2C=Cc3ccccc32)c2ccccc21 (configuration not stated)", "UNIT ABBREV": "%", "growth inhibition": -14.2}
{"COMPOUND": "CC(C(=O)C(=O)Nc1ccc(Cl)cc1)C(=O)c1ccc(Cl)cc1 (configuration not stated)", "UNIT ABBREV": "%", "growth inhibition": 1.25}
{"COMPOUND": "CCc1cc2c(O)c(c1)Cc1cc(CC)cc(c1O)Cc1cc(CC)cc(c1O)Cc1cc(CC)cc(c1O)Cc1cc(CC)cc(c1O)Cc1cc(CC)cc(c1O)Cc1cc(CC)cc(c1O)C2", "UNIT ABBREV": "%", "growth inhibition": 6.55}
{"COMPOUND": "S=C(N/N=C1\\CSCc2ccccc21)Nc1cc(Cl)ccc1Cl", "UNIT ABBREV": "%", "growth inhibition": 11.9}

Task: Read the entry "Cn1c(=O)c2[nH]c(SCCc3ccccc3)nc2n(C)c1=O" and write its reported growth inhibition.
Output: 0.65

Task: Determine its reported growth inhibition: O=C1NC2(CCCC2)C(=O)N2CCCC12 (configuration not stated)
Output: -8.65
